The measured values listed here are drawn from PubChem BioAssay (NCATS).

# METHOD_SUMMARY: Primary qHTS for inhibitors of nuclear receptor binding SET domain protein 2 (NSD2) in an isogenic RCH-ACV NSD2 p.E1099K mutant (9B) (AID 1645876); further: nearly all actives have a fitted effect of over 70% in size
# SETUP_CONDITIONS: RCH-ACV (leukaemia line) NSD2 E1099K (9B) viability, CellTiter-Glo, 72 h; series mostly up to 44.9 µM
Results filed as inconclusive are left out. Active and inactive are the calls of the source. The call rests on the fitted dose curve; in most records, active means well fitted inhibition curve with a large enough effect; inconclusive means small, poorly fitted or top-dose-only effect; inactive means flat fitted curve, though single readings scatter.
Allowed answers: active, inactive

Example entries and their recorded answers appear below.
Cc1ccc2c(Br)cc(Br)c(O)c2n1 = active
CNCCc1ccccn1 = inactive
CCCCCCCCCCCCCC(=O)OC(C)C = inactive

Which result was noted for this compound in the test: CCCCCCCCCCCCCCC[C@H](O)[C@@H](N)CO
active

* * *

# Test system: PC26
# METHOD_SUMMARY: qHTS profiling for inhibitors of Plasmodium falciparum proliferation (AID 504749); further: nearly all actives have a fitted effect of over 60% in size
# SETUP_CONDITIONS: P. falciparum in erythrocytes, SYBR Green DNA, 72 h; series mostly up to 28.7 µM
Records with an inconclusive call do not appear. The source made the active and inactive calls. Calls follow the shape of the dose curve; as a rule, active = well fitted inhibition curve with a large enough effect; inconclusive = small, poorly fitted or top-dose-only effect; inactive = flat fitted curve, though single readings scatter.
Allowed answers: class 1 = active, class 0 = inactive

Example entries and their recorded answers appear below.
CCCCCCCC/C=C\CCCCCCCCN = class 0
CC(=O)Nc1ccc(OCC(O)CNC(C)C)cc1 (stereo not drawn) = class 0
CC(C)Cc1ccc(CC(=O)O)cc1 = class 0

Which result was noted for this molecule in the test: CC(=O)Nc1ccc(CC(=O)O)cc1
class 0

Which result was noted for this molecule in the test: CCCN(CCC)S(=O)(=O)c1ccc(C(=O)O)cc1
class 0

Which result was noted for this molecule in the test: NS(=O)(=O)Cc1noc2ccccc12
class 0

Which result was noted for this molecule in the test: COc1ccc2c(c1)c1c3n2CCN(C)C3=NCC1
class 0

Which result was noted for this molecule in the test: CN(C)CCC[C@@]1(c2ccc(F)cc2)OCc2cc(C#N)ccc21
class 0

* * *

# Test system: CP215
# METHOD_SUMMARY: qHTS profiling for inhibitors of Plasmodium falciparum proliferation (AID 504749); further: nearly all actives have a fitted effect of over 60% in size
# SETUP_CONDITIONS: P. falciparum in erythrocytes, SYBR Green DNA, 72 h; series mostly up to 28.7 µM
Results filed as inconclusive are left out. Activity calls are given as the source filed them. The call rests on the fitted dose curve; in most records, active means well fitted inhibition curve with a large enough effect; inconclusive means small, poorly fitted or top-dose-only effect; inactive means flat fitted curve, though single readings scatter.
Allowed answers: yes (1) = active, no (0) = inactive

Example entries and their recorded answers appear below.
FC1(F)C(F)(F)C(F)(F)C2(F)C(F)(F)C(F)(F)C(F)(F)C(F)(F)C2(F)C1(F)F (stereo not drawn) = no (0)
CCOc1cc(OCC)c(C(=O)CCC(=O)O)cc1OCC = no (0)
CCN1/C(=C/C=C/c2sc3ccccc3[n+]2CC)Sc2ccccc21 = yes (1)

Which result was noted for this molecule in the test: Cc1ccc2c(Br)cc(Br)c(O)c2n1
yes (1)

Which result was noted for this molecule in the test: O=C(Nc1ncc([N+](=O)[O-])s1)c1cccs1
no (0)

Which result was noted for this molecule in the test: NS(=O)(=O)c1cc(C(=O)O)cc(N2CCCC2)c1Oc1ccccc1
no (0)

Which result was noted for this molecule in the test: Cc1cc(CC(=O)O)c(C)n1-c1ccc(Cl)cc1
no (0)

Which result was noted for this molecule in the test: C#C[C@]1(OC(C)=O)CC[C@H]2[C@@H]3CCC4=C/C(=N/O)CC[C@@H]4[C@H]3CC[C@@]21CC
no (0)
